Documented MIC across a set of compounds
- Test system: Staphylococcus aureus
- method notes: Antimicrobial activity against methicillin-resistant Staphylococcus aureus ATCC 43300 by broth dilution method
- Type: functional
readout name: MIC

| compound | result |
| --- | --- |
| N#Cc1ccc(COc2ccc3cc(S(=O)(=O)N[C@@H]4CCCC[C@H]4C(=O)O)ccc3c2)c(F)c1 | > 512 µg/mL |
| CCCCOc1ccc2cc(S(=O)(=O)N[C@@H]3CCCC[C@H]3C(=O)O)ccc2c1 | 256 µg/mL |
| CCCCOc1ccc2cc(S(=O)(=O)Nc3ccc(C(=O)O)cc3C(=O)O)ccc2c1 | > 512 µg/mL |
| N#Cc1ccc(COc2ccc3cc(S(=O)(=O)Nc4cc(C(=O)O)ccc4C(=O)O)ccc3c2)c(F)c1 | > 512 µg/mL |
| CCCCOc1ccc2cc(S(=O)(=O)Nc3ccc(O)cc3C(=O)O)ccc2c1 | > 512 µg/mL |
| CCCCOc1ccc2cc(S(=O)(=O)Nc3cc(C(=O)O)cc(C(=O)O)c3)ccc2c1 | > 512 µg/mL |
| N#Cc1ccc(COc2ccc3cc(S(=O)(=O)Nc4ccc(C(=O)O)cc4C(=O)O)ccc3c2)c(F)c1 | > 512 µg/mL |
| CCCCOc1ccc2cc(S(=O)(=O)Nc3ccc(CC(=O)O)cc3)ccc2c1 | 256 µg/mL |
| CCCCOc1ccc2cc(S(=O)(=O)Nc3cc(C(=O)O)ccc3C(=O)O)ccc2c1 | > 512 µg/mL |
| N#Cc1ccc(COc2ccc3cc(S(=O)(=O)Nc4ccc(CC(=O)O)cc4)ccc3c2)c(F)c1 | > 512 µg/mL |
| N#Cc1ccc(COc2ccc3cc(S(=O)(=O)Nc4ccc(O)cc4C(=O)O)ccc3c2)c(F)c1 | > 512 µg/mL |
| N#Cc1ccc(COc2ccc3cc(S(=O)(=O)NC4CCC(C(=O)O)CC4C(=O)O)ccc3c2)c(F)c1 (racemic) | > 512 µg/mL |
| N#Cc1ccc(COc2ccc3cc(S(=O)(=O)N[C@H]4CCCC[C@H]4C(=O)O)ccc3c2)c(F)c1 | 256 µg/mL |
| CCCCOc1ccc2cc(S(=O)(=O)NC3CCC(C(=O)O)CC3C(=O)O)ccc2c1 (racemic) | 128 µg/mL |
| CCCCOc1ccc2cc(S(=O)(=O)N[C@H]3CCCC[C@H]3C(=O)O)ccc2c1 | 128 µg/mL |
| N#Cc1ccc(COc2ccc3cc(S(=O)(=O)Nc4cc(C(=O)O)cc(C(=O)O)c4)ccc3c2)c(F)c1 | > 512 µg/mL |
